# assay.name: SUPPLEMENTARY: Lipophilicity (log D) Determination by high-throughput shake-flask
# Assay type: physicochemical
# condition.set: octanol/water
experimental.readout: logD
One number for each entry.

>>> readout_number("COc1ccc(Cl)cc1S(=O)(=O)N1CCOc2ccc(C(=O)Nc3ccc(CC(=O)O)cc3)cc21")
0.11

# per-item lookup of logD; items listed below
1. COc1cccc2c1CCN(C(=O)[C@H]1CCCCN1C(=O)COc1ccccc1)C2
2. CC(=O)Nc1ccc(-c2nc([C@H]3CCCCN3C(=O)COc3ccccc3)cs2)cc1

Response line:
3.13
3.72

###

# assay.system: Carnitine O-palmitoyltransferase 1, muscle isoform (Homo sapiens)
# Sequence (Q92523 whole entry): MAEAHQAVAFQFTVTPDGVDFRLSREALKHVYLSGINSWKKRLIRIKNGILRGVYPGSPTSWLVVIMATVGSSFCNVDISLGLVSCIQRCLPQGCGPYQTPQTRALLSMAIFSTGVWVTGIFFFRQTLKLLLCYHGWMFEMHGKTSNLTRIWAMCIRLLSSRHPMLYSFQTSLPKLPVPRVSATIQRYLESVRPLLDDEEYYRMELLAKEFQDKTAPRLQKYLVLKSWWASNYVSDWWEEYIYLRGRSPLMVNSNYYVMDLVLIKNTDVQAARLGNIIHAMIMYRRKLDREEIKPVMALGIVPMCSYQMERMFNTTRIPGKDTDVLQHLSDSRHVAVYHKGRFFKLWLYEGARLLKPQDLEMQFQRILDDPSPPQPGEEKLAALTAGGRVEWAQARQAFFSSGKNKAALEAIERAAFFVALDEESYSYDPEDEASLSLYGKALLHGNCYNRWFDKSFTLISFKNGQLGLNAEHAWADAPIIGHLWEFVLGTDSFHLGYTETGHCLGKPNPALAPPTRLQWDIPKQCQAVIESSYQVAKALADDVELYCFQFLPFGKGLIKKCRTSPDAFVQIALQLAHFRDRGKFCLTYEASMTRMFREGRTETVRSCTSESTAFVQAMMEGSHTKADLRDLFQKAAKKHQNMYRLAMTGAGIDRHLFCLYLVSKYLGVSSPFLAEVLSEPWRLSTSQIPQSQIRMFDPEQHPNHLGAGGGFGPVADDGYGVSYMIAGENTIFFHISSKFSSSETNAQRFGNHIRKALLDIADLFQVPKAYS
# assay.name: SUPPLEMENTARY: Inhibition of Carnitine palmitoyltransferase 1, muscle isoform
Assignment: determine reported IC50 for the given compounds.
One number for each entry, in nM.

Provide IC50 for all items below, preserving their order.
1. COc1ccc(Cl)cc1S(=O)(=O)N1CCc2ccc(C(=O)Nc3nc(CC(=O)O)cs3)cc21
2. Cc1cc(C)cc(S(=O)(=O)c2n[nH]c3ccc(C(=O)Nc4ccc(C(=O)O)cc4)cc23)c1
3. O=C(COc1ccccc1)N1CCCC[C@@H]1c1nc(-c2cccc(-c3nnco3)c2)n[nH]1

Response line:
1: 1310; 2: 1250; 3: 748

Hi team, please reply with IC50 for each item in this list.
1. COc1ccc(Cl)cc1S(=O)(=O)N1CCOc2ccc(C(=O)Nc3ccn(CC(=O)O)n3)cc21
2. COc1ccc(Cl)cc1S(=O)(=O)N1CCc2ccc(C(=O)Nc3ccc(C(=O)O)c(F)c3)cc21

Response line:
1: 9890; 2: 989

###

# assay.name: SUPPLEMENTARY: PAMPA permeability assay
# Assay type: physicochemical
# condition.set: read-out: Permeability
# if measured Papp < 2 ×10⁻⁶ cm/s: yes  # else: no

Would you please look over these solved cases?
>>> class("O=C1Cc2cc(-c3noc([C@H]4CNCCN4C(=O)COc4ccccc4)n3)ccc2N1")
"no"
>>> class("CCN(c1cc(C(=O)Nc2ncc(CC(=O)O)s2)cc2c1OCO2)S(=O)(=O)c1cc(Cl)ccc1OC")
"no"
>>> class("CCN1C(=O)CC(C)(C)c2ccc(-c3nc([C@H]4CCCCN4C(=O)COc4ccccc4)no3)cc21")
"yes"
>>> class("NS(=O)(=O)c1ccc(-c2noc(C3C4CC4CN3C(=O)COc3ccccc3)n2)cc1 (centres undefined)")
"no"
>>> class("COc1ccc(Cl)cc1S(=O)(=O)N1CCOc2ccc(C(=O)Nc3ccc(C(=O)O)c(F)c3)cc21")
"yes"

Here is the next item to consider.
Prompt line: Lab log: compare recorded Papp with 2 ×10⁻⁶ cm/s; is it strictly lower for Nc1cc(-c2noc([C@H]3CCCCN3C(=O)COc3ccccc3)n2)ccn1 ?
Response line: no
